Measured pIC50, listed per entry for reference.
target: monoclonal antibody 23L-1Na; assay: competitive EIA: unlabeled ligand varied against HRP-labeled [Cys^19-NH2] rat TGR23-2 ligand (1-19) for 23L-1Na (FIG. 5)
Hey, just a heads up that pIC50 is the negative log base 10 of the concentration in molar.

binder: SFRNGVGSGVKKTSFRRA [rat TGR23-2 ligand]
pIC50: 7.00
//
binder: SFRNGVGSGAKKTSFRRAKQ [mouse TGR23-2 ligand]
pIC50: 7.22

In: pIC50 for SFRNGVGTGMKKTSFQRAKS [human TGR23-2 ligand] ?
Out: 7.22
